This collection of values is drawn from paper PMC7027746.

type: in vivo, human; conditions: human, plasma, po, Cmax, mean (SD), healthy subjects; single 90 mg oral brigatinib + itraconazole 200 mg BID (test); n = 20
reported-endpoint: Cmax (ng/mL)
// note: answer is a bare numeric in ng/mL

Assign Cmax to the following record: COc1cc(N2CCC(N3CCN(C)CC3)CC2)ccc1Nc1ncc(Cl)c(Nc2ccccc2P(C)(C)=O)n1
429

---

experiment: Rifampin DDI arm: single-dose brigatinib plasma PK with and without rifampin; assay type: in vivo, human; details: human, plasma, oral, 180 mg, geometric mean t½, brigatinib 180 mg in the presence of rifampin
reported-endpoint: half-life (h)
Give your result in h as a bare value.

Identify the reported half-life for the following entry. COc1cc(N2CCC(N3CCN(C)CC3)CC2)ccc1Nc1ncc(Cl)c(Nc2ccccc2P(C)(C)=O)n1
23.4

---

format: in vivo, human; details: human, plasma, po, 90 mg, AUC0‐inf, geometric mean (% CV), healthy subjects; single 90 mg oral brigatinib alone (reference); n = 20
reported-endpoint: AUC
Answer format reminder: number followed by unit.

Answer with reported AUC of COc1cc(N2CCC(N3CCN(C)CC3)CC2)ccc1Nc1ncc(Cl)c(Nc2ccccc2P(C)(C)=O)n1 [brigatinib, Brigatinib]
6450 ng·h/mL

---

type: in vivo, human; conditions: human, plasma, po, 90 mg, AUC0‐120, mean (SD), healthy subjects; single 90 mg oral brigatinib alone (reference); n = 20
reported-endpoint: AUC (ng·h/mL)
Numbers only; they are read as ng·h/mL.

Tell me its AUC given COc1cc(N2CCC(N3CCN(C)CC3)CC2)ccc1Nc1ncc(Cl)c(Nc2ccccc2P(C)(C)=O)n1 [brigatinib, Brigatinib] as the entry.
6840

---

assay: Rifampin DDI arm: single-dose brigatinib plasma PK with and without rifampin; format: in vivo, human; details: human, plasma, po, Cmax, geometric mean (% CV), healthy subjects; single 180 mg oral brigatinib + rifampin 600 mg QD (test); n = 19
reported-endpoint: Cmax (ng/mL)
API: value field is a number in ng/mL; no unit string.

Give reported Cmax value for COc1cc(N2CCC(N3CCN(C)CC3)CC2)ccc1Nc1ncc(Cl)c(Nc2ccccc2P(C)(C)=O)n1
334

---

assay type: in vivo, human; conditions: human, plasma, po, 90 mg
reported-endpoint: Tmax (h)
Give your result in h as a bare value.

Indicate the recorded Tmax value for this compound: COc1cc(N2CCC(N3CCN(C)CC3)CC2)ccc1Nc1ncc(Cl)c(Nc2ccccc2P(C)(C)=O)n1
2.8

---

type: in vivo, human; settings: human, plasma, po, AUC0‐inf, mean (SD), healthy subjects; single 90 mg oral brigatinib + gemfibrozil 600 mg BID (test); n = 19
reported-endpoint: AUC (ng·h/mL)
Quick reminder: number only, in ng·h/mL, skip the unit.

Quick one: give measured AUC for COc1cc(N2CCC(N3CCN(C)CC3)CC2)ccc1Nc1ncc(Cl)c(Nc2ccccc2P(C)(C)=O)n1 [brigatinib, Brigatinib]
5910

---

format: in vivo, human; details: human, plasma, po, 90 mg
reported-endpoint: half-life (h)
Express it in h; write the number only.

Supply recorded half-life for COc1cc(N2CCC(N3CCN(C)CC3)CC2)ccc1Nc1ncc(Cl)c(Nc2ccccc2P(C)(C)=O)n1 [brigatinib, Brigatinib] here.
30.5

---

assay type: in vivo, human; conditions: human, plasma, po, Cmax, geometric mean (% CV), healthy subjects; single 90 mg oral brigatinib + gemfibrozil 600 mg BID (test); n = 19
reported-endpoint: Cmax (ng/mL)
Dear colleague, please return just the value in ng/mL, with no unit written.

For the molecule COc1cc(N2CCC(N3CCN(C)CC3)CC2)ccc1Nc1ncc(Cl)c(Nc2ccccc2P(C)(C)=O)n1 , give its reported Cmax.
199

---

assay: Rifampin DDI arm: single-dose brigatinib plasma PK with and without rifampin; assay type: in vivo, human; details: human, plasma, po, AUC0‐120, geometric mean (% CV), healthy subjects; single 180 mg oral brigatinib + rifampin 600 mg QD (test); n = 19
reported-endpoint: AUC
Record the result as a number with its unit.

Specify measured AUC for COc1cc(N2CCC(N3CCN(C)CC3)CC2)ccc1Nc1ncc(Cl)c(Nc2ccccc2P(C)(C)=O)n1 [brigatinib, Brigatinib] .
3020 ng·h/mL

---

assay type: in vivo, human; conditions: human, plasma, po, 90 mg, AUC0‐inf, mean (SD), healthy subjects; single 90 mg oral brigatinib alone (reference); n = 19
reported-endpoint: AUC (ng·h/mL)
Use ng·h/mL as the unit, but write only the number.

Supply measured AUC of COc1cc(N2CCC(N3CCN(C)CC3)CC2)ccc1Nc1ncc(Cl)c(Nc2ccccc2P(C)(C)=O)n1 in your reply.
7230

---

assay type: in vivo, human; conditions: human, plasma, po, AUC0‐120, mean (SD), healthy subjects; single 90 mg oral brigatinib + gemfibrozil 600 mg BID (test); n = 19
reported-endpoint: AUC (ng·h/mL)
Just the number in ng·h/mL, nothing appended.

In one line, give reported AUC of the entry COc1cc(N2CCC(N3CCN(C)CC3)CC2)ccc1Nc1ncc(Cl)c(Nc2ccccc2P(C)(C)=O)n1 [brigatinib, Brigatinib] .
5520

---

assay type: in vivo, human; conditions: human, plasma, po, 90 mg
reported-endpoint: Tmax

Return reported Tmax. Input compound: COc1cc(N2CCC(N3CCN(C)CC3)CC2)ccc1Nc1ncc(Cl)c(Nc2ccccc2P(C)(C)=O)n1
2 h

---

assay type: in vivo, human; conditions: human, plasma, po, 90 mg, AUC0‐120, geometric mean (% CV), healthy subjects; single 90 mg oral brigatinib alone (reference); n = 20
reported-endpoint: AUC (ng·h/mL)
Form entry: value (ng·h/mL) — number only.

Report measured AUC; entry is COc1cc(N2CCC(N3CCN(C)CC3)CC2)ccc1Nc1ncc(Cl)c(Nc2ccccc2P(C)(C)=O)n1
6140
